target: T1, recombinant biotinylated CD71 extracellular domain (Sino Biologics) with an N-terminal 6His tag (human, UniProt P02786 89-760, biotinylated (sites not given))
T1 construct: extracellular domain; also called hCD71; huCD71
T1 sequence (P02786 other isoform, or with tags, fused parts or gaps): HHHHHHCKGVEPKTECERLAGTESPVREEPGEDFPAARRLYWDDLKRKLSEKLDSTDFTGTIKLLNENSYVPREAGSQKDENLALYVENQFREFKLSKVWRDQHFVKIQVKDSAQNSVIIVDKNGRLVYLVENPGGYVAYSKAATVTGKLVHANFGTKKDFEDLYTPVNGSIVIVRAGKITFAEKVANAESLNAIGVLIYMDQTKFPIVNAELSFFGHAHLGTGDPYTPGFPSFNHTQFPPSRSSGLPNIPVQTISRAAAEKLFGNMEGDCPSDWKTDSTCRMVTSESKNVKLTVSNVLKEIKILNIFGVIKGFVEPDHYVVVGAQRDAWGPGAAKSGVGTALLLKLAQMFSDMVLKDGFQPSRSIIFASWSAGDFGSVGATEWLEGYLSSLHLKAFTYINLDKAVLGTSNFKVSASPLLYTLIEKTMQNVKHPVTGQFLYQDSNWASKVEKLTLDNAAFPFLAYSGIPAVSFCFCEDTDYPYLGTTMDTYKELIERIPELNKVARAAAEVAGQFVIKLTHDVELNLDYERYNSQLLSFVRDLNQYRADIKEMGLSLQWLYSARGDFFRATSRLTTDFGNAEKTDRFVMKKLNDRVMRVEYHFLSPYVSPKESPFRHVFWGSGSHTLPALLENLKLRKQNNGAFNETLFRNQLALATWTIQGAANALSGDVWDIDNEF
assay.remarks: screening ELISA, ratio
Reported huCD71/Fc by item:
Format: numeric value only, no unit, no commentary.

**Q:** Please list huCD71/Fc recorded for the binder SEQ ID NO 41 (designed binder, FN3 domain) MLPAPKNLVISRVTEDSARLSWTAPDAAFDSFFIYYIESYPAGEAIVLTVPGSERSYDLTGLKPGTEYWVGIDGVKGGRWSTPLSAIFTT
**A:** 423

**Q:** Give the measured huCD71/Fc for SEQ ID NO 47 (designed binder, FN3 domain) MLPAPKNLVVSRVTEDSARLSWTAPDAAFDSFTIWYAEALGDGEAIVLTVPGSERSYDLTGLKPGTEYFVDIYGVKGGFWSLPLSAIFTT
**A:** 50.9
